- Measured Target: Aryl hydrocarbon receptor (Homo sapiens) (UniProt P35869)
- Sequence (P35869 whole entry, looked up): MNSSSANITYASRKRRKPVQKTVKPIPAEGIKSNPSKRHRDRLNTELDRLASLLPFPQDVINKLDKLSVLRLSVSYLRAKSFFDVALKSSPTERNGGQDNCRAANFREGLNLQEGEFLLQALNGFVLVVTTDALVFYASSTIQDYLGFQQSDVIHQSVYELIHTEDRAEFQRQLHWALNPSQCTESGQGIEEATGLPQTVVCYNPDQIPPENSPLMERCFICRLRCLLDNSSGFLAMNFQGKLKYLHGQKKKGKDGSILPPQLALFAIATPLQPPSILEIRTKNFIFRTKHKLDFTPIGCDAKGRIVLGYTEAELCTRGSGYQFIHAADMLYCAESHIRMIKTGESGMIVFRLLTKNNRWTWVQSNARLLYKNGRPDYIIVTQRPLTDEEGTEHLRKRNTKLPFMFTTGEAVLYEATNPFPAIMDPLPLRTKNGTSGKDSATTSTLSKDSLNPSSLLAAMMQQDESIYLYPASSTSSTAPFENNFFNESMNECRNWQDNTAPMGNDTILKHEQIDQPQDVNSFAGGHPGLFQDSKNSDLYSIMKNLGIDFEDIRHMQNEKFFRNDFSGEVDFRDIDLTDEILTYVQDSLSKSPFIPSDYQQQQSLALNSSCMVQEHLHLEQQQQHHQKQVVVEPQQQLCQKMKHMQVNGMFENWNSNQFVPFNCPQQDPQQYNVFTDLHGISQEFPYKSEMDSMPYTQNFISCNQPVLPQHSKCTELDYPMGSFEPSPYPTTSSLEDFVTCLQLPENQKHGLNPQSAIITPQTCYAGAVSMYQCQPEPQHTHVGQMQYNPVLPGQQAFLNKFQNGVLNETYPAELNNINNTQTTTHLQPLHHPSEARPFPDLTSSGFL
- Assay Details: qHTS assay to identify small molecule that activate the aryl hydrocarbon receptor (AhR) signaling pathway (AID 743085);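 also: HG2L7.5c1 human HepG2 liver cells with stably integrated DRE-driven firefly reporter; nearly all actives have a fitted effect of over 15% in size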
- Condition: HepG2 AhR-luc (HG2L7.5c1), luciferase, 24 h; series mostly up to 70.3 µM
Results filed as inconclusive are left out. Calls of active or inactive are those of the source. Calls follow the shape of the dose curve; as a rule, active = well fitted activation curve with a large enough effect in the repeat runs; inconclusive = weak or mixed curves; inactive = no such curve, though single readings can be large or run the other way.
// one of Yes = active, No = inactive, no free text

Observe how each entry below is paired with its result.
Molecule | Measured Target | Label
O=c1[nH]c2ccccc2c(=O)o1 | Aryl hydrocarbon receptor (Homo sapiens) (UniProt P35869) | No
CC(C#N)CCC#N (stereo not given) | Aryl hydrocarbon receptor (Homo sapiens) (UniProt P35869) | No

Task: Please let me know the test result on file for CC(C)(C)C(O)(CCc1ccc(Cl)cc1)Cn1cncn1 (stereo not given) .
Output: No

Task: Please let me know the test result on file for `O=S(=O)(c1ccc(Cl)cc1)c1cc(Cl)c(Cl)cc1Cl` .
Output: No

Task: Please let me know the test result on file for `Clc1cccc(Cl)c1Cl` .
Output: No

Task: Please let me know the test result on file for CC(Br)C(=O)O (stereo not given) .
Output: No

Task: Please let me know the test result on file for `O=NN1CCCC1` .
Output: No

Task: Please let me know the test result on file for `Cc1[nH]c(=O)n(C(C)(C)C)c(=O)c1Cl` .
Output: No

Task: Please let me know the test result on file for `C=C(C)CCl` .
Output: No

Task: Please let me know the test result on file for `COC(=O)NS(=O)(=O)c1ccc(N)cc1` .
Output: No

Task: Please let me know the test result on file for CC1OC(C)OC(C)O1 (stereo not given) .
Output: No
